Assay: in vitro
Set-up: species or system HB2, HEK293
Details: human, ccd841 cells
Binarize viability at 48 h, 10 µM at 70%; below is Met, at or above is Not met.

COMPOUND | CAT
CN(C)c1ccc(NC(=O)CCl)cc1.Cl | Not met
C=CC(=O)N1CCC(N2CCS(=O)(=O)CC2)CC1 | Not met
O=C(CCl)N1CCCC1c1ccc2c(c1)OCCO2 (centres unmarked) | Met
O=C(CCl)Nc1nccs1 | Not met

Let us examine a further case.
In plain terms, does Cl.O=C(CCl)N1CCN(Cc2ccccc2F)CC1 come in under 70% for viability at 48 h, 10 µM?
Met

----------
Target: OTUB2 (OTUB2A) (Homo sapiens, UniProt Q96DC9)
Construct: full length residues 1-234, E. coli BL21(DE3)-R3, His tag removed by TEV, construct 27312 Da
Design: Intact protein LC/MS covalent labelling, fragments in pools of five, 200 uM each, 4 °C
Conditions: 24 h, 4 °C, pool of five; 200 µM; covalent
OBSERVATION_TYPE: OTUB2

Sample records with OTUB2:
MOLECULE | SYSTEM_TESTED | OTUB2
O=C(CCl)N1CCCc2cc([N+](=O)[O-])ccc21 [PCM-0102188] | OTUB2 (OTUB2A) (Homo sapiens, UniProt Q96DC9) | 0.12
Cc1cc(NC(=O)CCl)n(-c2ccc(F)cc2)n1 [PCM-0102665] | OTUB2 (OTUB2A) (Homo sapiens, UniProt Q96DC9) | 0.53
CC(=O)c1oc2ccccc2c1NC(=O)CCl [PCM-0102918] | OTUB2 (OTUB2A) (Homo sapiens, UniProt Q96DC9) | 0

Requested field: OTUB2. Item: O=C(CCl)NNC(=O)c1ccc(Cl)cc1 [PCM-0102953]
0.18

Now the same for CC1CCC2(CC1)NC(=O)N(NC(=O)CCl)C2=O (stereo not shown) [PCM-0102666]
0

Item: Cc1ccc(CN(C)C(=O)CCl)c(C)c1 [PCM-0102552]
0

What would you report for Cc1n[nH]c(=O)c2c(NC(=O)CCl)oc(C)c12 [PCM-0102226] ?
0

Can you handle O=C(CCl)NCC(F)(F)F [PCM-0102456] next?
0

And then CN(Cc1ccsc1)C(=O)CCl [PCM-0102865] , what is it?
0

Can you check O=C(CCl)N1CCc2ccccc21 [PCM-0102160] next?
0

Now the same for Cc1nc(C2(NC(=O)CCl)CCCCCC2)no1 [PCM-0102944]
0

----------
Target: OTUB2 (OTUB2A) (Homo sapiens, UniProt Q96DC9)
Construct: full length residues 1-234, E. coli BL21(DE3)-R3, His tag removed by TEV, construct 27312 Da
Sequence (Q96DC9 1-234): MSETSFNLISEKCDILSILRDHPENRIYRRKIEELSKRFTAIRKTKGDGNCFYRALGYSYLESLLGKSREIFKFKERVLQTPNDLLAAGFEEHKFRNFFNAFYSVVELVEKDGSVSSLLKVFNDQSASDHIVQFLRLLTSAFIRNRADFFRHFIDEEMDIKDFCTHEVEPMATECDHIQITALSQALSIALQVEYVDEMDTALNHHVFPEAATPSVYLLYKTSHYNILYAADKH
Parameters: Intact protein LC/MS covalent labelling, fragments in pools of five, 200 uM each, 4 °C
Details: 24 h, 4 °C, pool of five; 200 µM; covalent
OBSERVATION_TYPE: OTUB2
Reply: number alone, nothing else.

COMPOUND | OTUB2
CC(C)c1nnc(NC(=O)CCl)s1 | 0
C=CC(=O)N1CC(O)CC1c1ccccc1C(F)(F)F (stereo not shown) | 0
Cc1cc(C)c(C(C)NC(=O)CCl)cc1C (stereo not shown) | 0.17
CN(CC(=O)NC(C)(C)C)C(=O)CCl | 0
N#Cc1ccc(NC(=O)CCl)cc1 | 0.08
C=CC(=O)N1CCC(n2ncc3ccccc32)C1 (stereo not shown) | 0.42

Could you share which OTUB2 value was measured for C=CC(=O)N1CCCC1C(=O)Nc1nc2ccccc2s1 (stereo not shown) ?
0

Another compound to check: Cc1cc(Br)ccc1NC(=O)CCl
0.61

Follow-up entry: O=C(CCl)Nc1oncc1-c1ccccc1
0.64

Follow-up entry: CN(C)c1ccc(Cl)cc1NC(=O)CCl
0.06

COC(=O)C1Cc2ccccc2CN1C(=O)CCl (stereo not shown) , same question.
0.41

Input C=CC(=O)N1Cc2ccc(S(=O)(=O)N(C)C)cc2C1
0

How about C=CC(=O)NC1CCCc2cnn(C(C)C)c21 (stereo not shown) ?
0

Same thing, different compound: C=CC(=O)N1CCN(c2nccc3sccc23)CC1
0

Also COc1ccccc1C(=O)NC(=O)CCl ?
0

Consider next the compound C=CC(=O)NCC1CCOCO1 (stereo not shown) in the same way.
0

Here is the next compound: C=CC(=O)N1CCCC(Oc2ncccc2F)C1 (stereo not shown)
0.07
